# Target Under Test: AKT1 (human) (UniProt P31749)
# Sequence (P31749 whole entry, looked up): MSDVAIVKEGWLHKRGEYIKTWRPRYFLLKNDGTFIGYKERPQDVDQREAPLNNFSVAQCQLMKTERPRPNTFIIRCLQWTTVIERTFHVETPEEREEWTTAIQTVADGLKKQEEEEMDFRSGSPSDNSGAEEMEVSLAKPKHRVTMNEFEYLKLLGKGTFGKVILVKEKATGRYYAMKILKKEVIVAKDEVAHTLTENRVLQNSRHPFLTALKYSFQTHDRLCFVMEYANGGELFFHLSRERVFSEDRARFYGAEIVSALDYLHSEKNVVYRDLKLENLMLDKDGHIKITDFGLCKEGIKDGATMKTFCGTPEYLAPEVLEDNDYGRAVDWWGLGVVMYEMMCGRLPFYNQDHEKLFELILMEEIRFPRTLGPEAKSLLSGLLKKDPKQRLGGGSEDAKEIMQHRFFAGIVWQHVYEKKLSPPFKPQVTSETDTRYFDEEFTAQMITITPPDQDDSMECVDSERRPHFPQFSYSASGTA
# Test Name: radiometric filter-binding kinase assay, Kinase HotSpot
# Assay Setup: compound 0.5 µM; ATP 10 µM
Friendly reminder: residual activity below 90% is Met, at or above is Not met.

{"Structure Smiles String": "O=C1Nc2ccccc2/C1=C\\c1c(Cl)[nH]c2ccccc12", "Qualitative Label": "Not met"}
{"Structure Smiles String": "NC(=O)c1ccc(N(C(N)=O)c2c(F)cccc2F)nc1-c1ccc(F)cc1F", "Qualitative Label": "Met"}
{"Structure Smiles String": "C#Cc1cccc(Nc2ncnc3cc(OCCOC)c(OCCOC)cc23)c1", "Qualitative Label": "Not met"}
{"Structure Smiles String": "Nc1nc(Nc2ccc(S(N)(=O)=O)cc2)nn1C(=O)c1c(F)cccc1F", "Qualitative Label": "Not met"}

----------
# Test system: ARAF (human), P10398 [Y301D/Y302D]
# Sequence (P10398 whole entry Y301D/Y302D, looked up): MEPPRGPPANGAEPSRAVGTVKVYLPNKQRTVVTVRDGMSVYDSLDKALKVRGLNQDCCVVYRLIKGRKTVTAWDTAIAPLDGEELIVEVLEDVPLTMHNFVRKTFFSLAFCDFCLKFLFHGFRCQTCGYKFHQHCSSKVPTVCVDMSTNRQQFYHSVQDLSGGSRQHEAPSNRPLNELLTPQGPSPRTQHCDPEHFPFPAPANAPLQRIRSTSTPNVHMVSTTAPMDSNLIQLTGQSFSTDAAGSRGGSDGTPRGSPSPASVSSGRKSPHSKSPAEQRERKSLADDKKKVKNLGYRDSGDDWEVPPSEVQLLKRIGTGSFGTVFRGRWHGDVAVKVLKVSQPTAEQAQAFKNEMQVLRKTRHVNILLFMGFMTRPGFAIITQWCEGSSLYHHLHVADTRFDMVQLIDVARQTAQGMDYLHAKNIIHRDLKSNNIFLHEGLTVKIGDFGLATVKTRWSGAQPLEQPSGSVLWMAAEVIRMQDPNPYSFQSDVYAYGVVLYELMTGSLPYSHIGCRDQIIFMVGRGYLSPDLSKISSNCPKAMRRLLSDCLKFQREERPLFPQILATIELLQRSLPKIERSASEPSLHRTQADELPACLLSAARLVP
# Test Name: radiometric filter-binding kinase assay, Kinase HotSpot
# Assay Setup: compound 0.5 µM; ATP 10 µM

{"Structure Smiles String": "CCOc1cc2ncnc(Nc3cccc(Br)c3)c2cc1OCC", "Display Unit": "%", "residual activity": 105}
{"Structure Smiles String": "COc1cc2ncnc(N3CCN(C(=O)Nc4ccc(Oc5ccccc5)cc4)CC3)c2cc1OC", "Display Unit": "%", "residual activity": 105}
{"Structure Smiles String": "COc1cc2ncc(-c3ccccc3)nc2cc1OC", "Display Unit": "%", "residual activity": 87.6}
{"Structure Smiles String": "Nc1ncnc2c1cnn2-c1ccccc1", "Display Unit": "%", "residual activity": 99.3}
{"Structure Smiles String": "c1ccc2c(-c3ccncc3)c[nH]c2c1", "Display Unit": "%", "residual activity": 97.7}
{"Structure Smiles String": "Nc1nccc(-c2c(-c3ccc(F)cc3)ncn2C2CCNCC2)n1", "Display Unit": "%", "residual activity": 93.1}
{"Structure Smiles String": "COc1cccc(-c2cc(=O)c3ccccc3o2)c1N", "Display Unit": "%", "residual activity": 98.9}
{"Structure Smiles String": "N#Cc1c(NC(=O)c2cccc3ccccc23)sc2c1CCCC2", "Display Unit": "%", "residual activity": 104}
{"Structure Smiles String": "CO[C@@H]1[C@H](N(C)C(=O)c2ccccc2)C[C@H]2O[C@]1(C)n1c3ccccc3c3c4c(c5c6ccccc6n2c5c31)C(=O)NC4", "Display Unit": "%", "residual activity": 122}
{"Structure Smiles String": "O=C(c1cc2cc(O)ccc2[nH]1)c1cc2cc(O)ccc2[nH]1", "Display Unit": "%", "residual activity": 98.6}
{"Structure Smiles String": "CCCCc1c(-c2ccc(O)cc2)[nH]c2nccnc12", "Display Unit": "%", "residual activity": 92.6}
{"Structure Smiles String": "O=c1cc(N2CCOCC2)oc2c(-c3ccccc3)cccc12", "Display Unit": "%", "residual activity": 105}
{"Structure Smiles String": "c1ccc(-c2n[nH]cc2-c2ccnc3ccccc23)nc1", "Display Unit": "%", "residual activity": 91.5}
{"Structure Smiles String": "O=C1Cc2c([nH]c3ccc([N+](=O)[O-])cc23)-c2ccccc2N1", "Display Unit": "%", "residual activity": 96.2}
{"Structure Smiles String": "CNC(=O)c1cc(Oc2ccc(NC(=O)Nc3ccc(Cl)c(C(F)(F)F)c3)cc2)ccn1", "Display Unit": "%", "residual activity": 7.04}
{"Structure Smiles String": "Cc1ccc(Nc2nccc(N(C)c3ccc4c(C)n(C)nc4c3)n2)cc1S(N)(=O)=O", "Display Unit": "%", "residual activity": 76.5}
{"Structure Smiles String": "CCC(=O)Nc1ccc2ncnc(Nc3cccc(Br)c3)c2c1", "Display Unit": "%", "residual activity": 93.4}

----------
Catalogue of residual activity readings, one per entry.
# Target Under Test: UniProtKB Q99558
# Sequence (Q99558 whole entry, looked up): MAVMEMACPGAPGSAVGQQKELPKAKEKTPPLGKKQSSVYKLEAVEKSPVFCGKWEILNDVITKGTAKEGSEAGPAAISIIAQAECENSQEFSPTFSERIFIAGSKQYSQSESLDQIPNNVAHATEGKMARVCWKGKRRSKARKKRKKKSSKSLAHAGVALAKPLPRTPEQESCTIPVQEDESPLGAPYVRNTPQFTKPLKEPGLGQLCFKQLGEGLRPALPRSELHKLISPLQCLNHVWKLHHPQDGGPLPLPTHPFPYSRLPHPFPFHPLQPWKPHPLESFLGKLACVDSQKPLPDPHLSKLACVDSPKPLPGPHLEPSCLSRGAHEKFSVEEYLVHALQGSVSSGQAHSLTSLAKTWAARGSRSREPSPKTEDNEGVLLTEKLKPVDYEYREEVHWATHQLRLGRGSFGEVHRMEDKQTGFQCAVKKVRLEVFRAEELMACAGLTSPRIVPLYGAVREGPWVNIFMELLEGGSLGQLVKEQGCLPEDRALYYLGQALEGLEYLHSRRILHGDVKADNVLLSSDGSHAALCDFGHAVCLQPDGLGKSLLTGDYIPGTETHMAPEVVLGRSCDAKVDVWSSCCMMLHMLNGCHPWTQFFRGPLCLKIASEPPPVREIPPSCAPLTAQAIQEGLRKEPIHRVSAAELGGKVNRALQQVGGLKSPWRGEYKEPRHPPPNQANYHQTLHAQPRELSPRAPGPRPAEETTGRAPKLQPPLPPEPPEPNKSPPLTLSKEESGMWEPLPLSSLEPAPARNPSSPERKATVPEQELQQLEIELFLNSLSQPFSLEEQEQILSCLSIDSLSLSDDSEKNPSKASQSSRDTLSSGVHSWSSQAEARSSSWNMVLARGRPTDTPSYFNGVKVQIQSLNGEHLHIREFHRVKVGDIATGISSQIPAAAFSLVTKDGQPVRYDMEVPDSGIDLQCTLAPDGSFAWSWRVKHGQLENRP
# Test Name: radiometric filter-binding kinase assay, Kinase HotSpot
# Assay Setup: compound 0.5 µM; ATP 10 µM

{"Compound": "O=C1Cc2c([nH]c3ccc([N+](=O)[O-])cc23)-c2ccccc2N1", "Target Under Test": "UniProtKB Q99558", "residual activity / %": 132}
{"Compound": "O=C1Nc2ccccc2/C1=C\\c1c(Cl)[nH]c2ccccc12", "Target Under Test": "UniProtKB Q99558", "residual activity / %": 92.6}
{"Compound": "CS(=O)c1ccc(-c2nc(-c3ccc(F)cc3)c(-c3ccncc3)[nH]2)cc1 (configuration not stated)", "Target Under Test": "UniProtKB Q99558", "residual activity / %": 118}
{"Compound": "CCCNC(=O)Nc1ccc(Oc2ncnc3cc(OC)c(OC)cc23)cc1Cl", "Target Under Test": "UniProtKB Q99558", "residual activity / %": 109}
{"Compound": "Cc1cc2ncc(-c3ccccc3)nc2cc1C", "Target Under Test": "UniProtKB Q99558", "residual activity / %": 112}
{"Compound": "CC(C)(C)c1nc2c3ccc(F)cc3c3c(=O)[nH]ccc3c2[nH]1", "Target Under Test": "UniProtKB Q99558", "residual activity / %": 71.3}
{"Compound": "Oc1ccc(-c2nc(-c3ccc(F)cc3)c(-c3ccncc3)[nH]2)cc1", "Target Under Test": "UniProtKB Q99558", "residual activity / %": 115}
{"Compound": "Nc1nc(Nc2ccc(S(N)(=O)=O)cc2)nn1C(=O)c1c(F)cccc1F", "Target Under Test": "UniProtKB Q99558", "residual activity / %": 106}
{"Compound": "COc1cc2nccc(Oc3ccc(NC(=S)NC(=O)c4ccccc4C)cc3)c2cc1OC", "Target Under Test": "UniProtKB Q99558", "residual activity / %": 106}
{"Compound": "COc1ccc(-c2cnc3c(-c4ccsc4)cnn3c2)cc1", "Target Under Test": "UniProtKB Q99558", "residual activity / %": 106}
{"Compound": "CSc1nc(-c2ccc(F)cc2)c(-c2ccnc(NC(C)c3ccccc3)c2)[nH]1 (configuration not stated)", "Target Under Test": "UniProtKB Q99558", "residual activity / %": 127}
{"Compound": "CCN1/C(=C/C(C)=O)Sc2ccc(OC)cc21", "Target Under Test": "UniProtKB Q99558", "residual activity / %": 86.1}
{"Compound": "O=c1cc(-c2cccc3c2Sc2ccccc2S3)oc(N2CCOCC2)c1", "Target Under Test": "UniProtKB Q99558", "residual activity / %": 94.9}
{"Compound": "Nc1nc(Nc2ccc(S(N)(=O)=O)cc2)nn1C(=S)Nc1c(F)cccc1F", "Target Under Test": "UniProtKB Q99558", "residual activity / %": 29.1}
{"Compound": "Clc1ccc(Nc2nnc(Cc3ccncc3)c3ccccc23)cc1", "Target Under Test": "UniProtKB Q99558", "residual activity / %": 126}
{"Compound": "O=C(Nc1ccc(Cl)cc1)c1ccccc1NCc1ccncc1", "Target Under Test": "UniProtKB Q99558", "residual activity / %": 114}
{"Compound": "CC(C)n1cnc2c(Nc3cccc(Cl)c3)nc(NCCO)nc21", "Target Under Test": "UniProtKB Q99558", "residual activity / %": 97.4}
{"Compound": "O=C1Nc2cc(Br)ccc2/C1=C1/Nc2ccccc2/C1=N\\O", "Target Under Test": "UniProtKB Q99558", "residual activity / %": 89.6}
{"Compound": "COc1cc2ncnc(Nc3ccc(F)c(Cl)c3)c2cc1OCCCN1CCOCC1", "Target Under Test": "UniProtKB Q99558", "residual activity / %": 104}
{"Compound": "NC(=O)c1ccc(N(C(N)=O)c2c(F)cccc2F)nc1-c1ccc(F)cc1F", "Target Under Test": "UniProtKB Q99558", "residual activity / %": 114}
{"Compound": "O=C(NC(NC(=S)Nc1ccc(F)c([N+](=O)[O-])c1)C(Cl)(Cl)Cl)C(c1ccccc1)c1ccccc1 (configuration not stated)", "Target Under Test": "UniProtKB Q99558", "residual activity / %": 92.1}
{"Compound": "O=c1cc(N2CCNCC2)oc2c(-c3ccccc3)cccc12", "Target Under Test": "UniProtKB Q99558", "residual activity / %": 110}

----------
# Target Under Test: MAPK14 (human)
# Test Name: radiometric filter-binding kinase assay, Kinase HotSpot
# Assay Setup: compound 0.5 µM; ATP 10 µM

{"Compound": "Nc1n[nH]c2nnc(-c3c(-c4ccccc4)nn4ccccc34)cc12", "residual activity [%]": 94.6}
{"Compound": "Cc1cc2ncc(-c3ccccc3)nc2cc1C", "residual activity [%]": 103}
{"Compound": "O=C1Cc2c([nH]c3ccc([N+](=O)[O-])cc23)-c2ccccc2N1", "residual activity [%]": 92.1}
{"Compound": "Clc1ccc(Nc2nnc(Cc3ccncc3)c3ccccc23)cc1", "residual activity [%]": 98.2}
{"Compound": "Nc1nc(Nc2ccc(S(N)(=O)=O)cc2)nn1C(=S)Nc1c(F)cccc1F", "residual activity [%]": 95.4}
{"Compound": "Nc1nc(Nc2ccc(S(N)(=O)=O)cc2)nn1C(=O)c1c(F)cccc1F", "residual activity [%]": 97.8}
{"Compound": "Oc1ccc(-c2nc(-c3ccc(F)cc3)c(-c3ccncc3)[nH]2)cc1", "residual activity [%]": 7.42}
{"Compound": "O=c1cc(N2CCNCC2)oc2c(-c3ccccc3)cccc12", "residual activity [%]": 82.8}
{"Compound": "CSc1nc(-c2ccc(F)cc2)c(-c2ccnc(NC(C)c3ccccc3)c2)[nH]1 (stereo unspecified)", "residual activity [%]": 7.64}
{"Compound": "C#Cc1cccc(Nc2ncnc3cc(OCCOC)c(OCCOC)cc23)c1", "residual activity [%]": 95.3}
{"Compound": "COc1ccc(-c2cnc3c(-c4ccsc4)cnn3c2)cc1", "residual activity [%]": 120}

Data provenance is the kinase profiling compilation of Christmann-Franck et al. (2016).
